Reference for the values: ChEMBL document CHEMBL1144837

# Tested on: K562
# test-protocol: Cell cycle arrest in human K562 cells assessed as accumulation at G2/M phase at 10 uM after 24 hrs by flow cytometry
# Type: functional
Entries whose Activity is below 40% take Y; entries at or above 40% take N.

Exercise: Is Activity of `COc1ccc(/C=C/C(=O)c2c(OC)cccc2OC)c(OC)c1` strictly below 40%?
Solution: Y

Exercise: Is Activity of `CC[C@]1(O)C[C@H]2CN(CCc3c([nH]c4ccccc34)[C@@](C(=O)OC)(c3cc4c(cc3OC)N(C=O)[C@H]3[C@@](O)(C(=O)OC)[C@H](OC(C)=O)[C@]5(CC)C=CCN6CC[C@]43[C@@H]65)C2)C1` strictly below 40%?
Solution: N

Exercise: Is Activity of `COc1cccc(OC)c1C(=O)/C=C/c1ccccc1` strictly below 40%?
Solution: N

Exercise: Is Activity of `COc1cc(OC)c(/C=C/C(=O)c2c(OC)cc(OC)cc2OC)c(OC)c1` strictly below 40%?
Solution: N

Exercise: Is Activity of `COc1ccc(C(=O)/C=C/c2ccc(Cl)cc2)c(O)c1` strictly below 40%?
Solution: Y

Exercise: Is Activity of `COc1cccc(/C=C/C(=O)c2c(O)cc(OC)cc2OC)c1` strictly below 40%?
Solution: N

Exercise: Is Activity of `COc1cc(O)c(C(=O)/C=C/c2c(OC)cccc2OC)c(OC)c1` strictly below 40%?
Solution: Y

Exercise: Is Activity of `COc1ccc(C(=O)/C=C/c2c(F)cccc2Cl)c(O)c1` strictly below 40%?
Solution: Y

Exercise: Is Activity of `CCOc1cc(OCC)c(/C=C/C(=O)c2c(OCC)cc(OCC)cc2OCC)c(OCC)c1` strictly below 40%?
Solution: Y
